tgt: Mcl-1 protein (UniProtKB primary accession number: Q07820) (Homo sapiens, UniProt Q07820)
Sequence (Q07820 whole entry): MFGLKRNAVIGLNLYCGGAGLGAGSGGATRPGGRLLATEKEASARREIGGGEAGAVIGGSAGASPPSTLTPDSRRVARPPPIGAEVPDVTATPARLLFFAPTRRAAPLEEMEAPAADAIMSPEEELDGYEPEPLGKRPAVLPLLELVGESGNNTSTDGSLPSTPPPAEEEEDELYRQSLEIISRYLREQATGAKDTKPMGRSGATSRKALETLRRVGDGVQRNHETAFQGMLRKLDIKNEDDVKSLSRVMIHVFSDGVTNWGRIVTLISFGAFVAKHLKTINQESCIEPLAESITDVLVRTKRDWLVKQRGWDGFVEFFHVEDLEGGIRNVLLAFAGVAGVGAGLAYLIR
assay_info: Inhibition of Mcl-1 by fluorescence polarisation, Method 1
Assay type: binding
setup_conditions: fluorescence polarisation; Method 1, or Method 2; read-out: IC50 (M) Mcl-1 FP
experimental_endpoint: IC50 (M)

compound	tgt	experimental_endpoint	unit_text	observed_result
Cc1ccsc1-c1sc2ncnc(OC(Cc3ccccc3)C(=O)O)c2c1-c1ccc(OCCN2CCN(C)CC2)c(Cl)c1C (stereo not drawn)	Mcl-1 protein (UniProtKB primary accession number: Q07820) (Homo sapiens, UniProt Q07820)	IC50	M	5.1e-07
CCCCn1nccc1COc1ccccc1CC(Oc1ncnc2sc(-c3ccc(OC)cc3)c(-c3ccc(OCCN4CCN(C)CC4)c(Cl)c3C)c12)C(=O)O (stereo not drawn)	Mcl-1 protein (UniProtKB primary accession number: Q07820) (Homo sapiens, UniProt Q07820)	IC50	M	5e-09
Cc1c(-c2c(-c3ccc(F)cc3)sc3ncnc(OC(Cc4ccccc4OCC(F)(F)F)C(=O)O)c23)ccc(OCC2CCCN2C)c1Cl (single isomer, unassigned) [Example 659]	Mcl-1 protein (UniProtKB primary accession number: Q07820) (Homo sapiens, UniProt Q07820)	IC50	M	2.2e-08
Cc1c(-c2c(-c3ccc(F)cc3)sc3ncnc(O[C@H](Cc4ccccc4OCc4ccnc(-c5ccccc5CO)n4)C(=O)O)c23)ccc(OCCN2CCN(C)CC2)c1Cl	Mcl-1 protein (UniProtKB primary accession number: Q07820) (Homo sapiens, UniProt Q07820)	IC50	M	1.18e-09
Cc1c(-c2c(-c3ccc(F)cc3)sc3ncnc(OC(Cc4ccccc4OCc4ccnn4C(C)C)C(=O)O)c23)ccc(OCCN(C)C)c1Cl (stereo not drawn)	Mcl-1 protein (UniProtKB primary accession number: Q07820) (Homo sapiens, UniProt Q07820)	IC50	M	5.5e-09
Cc1c(-c2c(C#CC3CC3)sc3ncnc(OC(Cc4ccccc4)C(=O)O)c23)ccc(OCCN2CCN(C)CC2)c1Cl (stereo not drawn)	Mcl-1 protein (UniProtKB primary accession number: Q07820) (Homo sapiens, UniProt Q07820)	IC50	M	4.1e-08

---

tgt: Mcl-1 protein (UniProtKB primary accession number: Q07820) (Homo sapiens, UniProt Q07820)
assay_info: Inhibition of Mcl-1 by fluorescence polarisation, Method 1
Type: binding
setup_conditions: fluorescence polarisation; Method 1, or Method 2; read-out: IC50 (M) Mcl-1 FP
experimental_endpoint: IC50 (M)

> print(dat)
                                   molecule  experimental.endpoint  observed.result
1  Cc1c(-c2c(-c3ccc(F)cc3)sc3ncnc(OC(Cc4ccccc4OCc4ccnn4Cc4ccncc4)C(=O)O)c23)ccc(OCCN2CCN(C)CC2)c1Cl (stereo not shown)                   IC50         2.58e-09
2  CCc1sc2ncnc(OC(Cc3ccccc3OCc3ccnc(OC)n3)C(=O)O)c2c1-c1ccc(OCCN2CCN(C)CC2)c(Cl)c1C (stereo not shown)                   IC50          6.2e-09
3  COc1ccccc1C[C@@H](Oc1ncnc2sc(-c3ccc(F)c(F)c3)c(-c3ccc(OCCN4CCN(C)CC4)c(Cl)c3C)c12)C(=O)O                   IC50          2.8e-08
4  CC#Cc1sc2ncnc(OC(Cc3ccccc3OC)C(=O)O)c2c1-c1ccc(OCCN2CCN(C)CC2)c(Cl)c1C (stereo not shown)                   IC50          1.9e-08
5  COc1ccccc1CC(Oc1ncnc2sc(-c3cccnc3)c(-c3ccc(OCCN4CCN(C)CC4)c(Cl)c3C)c12)C(=O)O (stereo not shown)                   IC50          2.1e-08
6  CCc1sc2ncnc(OC(Cc3ccccc3OCCOC)C(=O)O)c2c1-c1ccc(OCCN2CCN(C)CC2)c(Cl)c1C (stereo not shown)                   IC50          3.4e-08
7  CCc1sc2ncnc(OC(Cc3ccccc3)C(=O)O)c2c1-c1cc(Cl)c(O)c(Cl)c1C (stereo not shown) [Example 429]                   IC50          5.3e-08

The reported numbers originate from patent US9670227B2.
